The reported numbers originate from ChEMBL document CHEMBL5303304.

Measured Growth Rate of individual entries
- System: Fibroblast
- measurement notes: Incucyte cell viability with human fibroblast; note: unitless GR value; below 1 slowed growth and below 0 cell loss
- Type: toxicity, cell-based
- cond: 0 h, 10 µM, compound concentration 10 uM, replicate number 1
measured metric: Growth Rate

* O=c1cc(-c2cc(F)c(Cl)nc2Cl)[nH]c2c(-c3ccccc3)c(C(F)(F)F)nn12 | -0.22
* CC[C@](C)(O)C#Cc1cc2c(ccn2-c2cc(OC)nc(N)n2)cn1 | -0.3
* N#CN1CC[C@@H](C(=O)Nc2nc3c(s2)CN(C(=O)CN=[N+]=[N-])CC3)C1 | -1
* COc1ccc(CSc2nnc(-c3ccc4ncsc4c3)o2)cc1C(F)(F)F | -1
* Cc1ccc(-c2cn3nc(C(=O)NC4(c5ccc(F)cc5)CN(C)C4)c(C(C)C)c3c(=O)[nH]2)cc1C | -1
* CCn1c(-c2nonc2N)nc2cncc(C(=O)N3CC[C@H](N)C3)c21.Cl | -1

* * *

- System: U2OS
- measurement notes: Incucyte cell viability with U2OS; note: unitless GR value; below 1 slowed growth and below 0 cell loss
- Assay type: toxicity, cell-based
- cond: human, 12 h, 10 µM, compound concentration 10 uM, replicate number 2
measured metric: Growth Rate

* O=C(Nc1c[nH]nc1-c1nc2cc(CN3CCOCC3)ccc2[nH]1)NC1CC1 | 0.78
* COC[C@@H](C)N[C@H]1CC[C@H](Nc2cc(-c3cccc(NCC4(C#N)CCOCC4)n3)c(Cl)cn2)CC1 | 0.62
* CN1CCN([C@H]2CC[C@@H](n3cc(-c4ccc(Oc5ccccc5)cc4)c4c(N)ncnc43)CC2)CC1 | 0.01
* Cc1nc2ccc(Cl)cc2c(-c2ccccc2)c1CC(=O)O.Cl | 0.93
* CC#CC(=O)N1CCN(c2nc(-c3ccc(Oc4ccccc4)cc3)c(C(N)=O)s2)CC1 | 0.92
* CCN1CCN(Cc2ccc(NC(=O)Nc3ccc(Oc4cc(NC)ncn4)cc3)cc2C(F)(F)F)CC1 | 0.86
* CC(=O)Nc1c(F)cc(C(=O)N[C@H]2CC[C@H](O)CC2)cc1O[C@@H](C)c1ccccc1 | 0.94
* O=C1NC(=NCc2cccs2)SC1=Cc1ccc2ncccc2c1 | 0.54
* CC(C)(C)c1cnc(CSc2cnc(NC(=O)C3CCNCC3)s2)o1 | 0.05
* Cc1cc(C)c(NC(=O)C2CC3CCC2C3)c(C)c1 (stereo not drawn) | 0.78
* O=C(NCCN1CCOCC1)c1ccc2nn(CCOc3ccc(Cl)cc3)cc2c1 | 0.88
* O=C1N=C(NCc2cccs2)S/C1=C\c1ccc2ncccc2c1 | 0.57
* COc1ccc(S(=O)(=O)N2CCOCC2)cc1Nc1ccc2c(n1)N(C1CCN(C)CC1)[C@H](C)C(=O)N2C | 0.86
* FC(F)(F)c1ccc(Nc2ncnc3cc(-c4ncccc4C(F)(F)F)ccc23)cc1 | 0.71
* O=C(O)[C@]1(Cc2cccc(Nc3nccs3)n2)CC[C@@H](Oc2cccc(Cl)c2F)CC1 | 0.14
* CC(C)c1nc2c(c3c1[C@@H](c1ccc(C(F)(F)F)cc1)OC31CCOCC1)[C@@H](O)CC(C)(C)C2.Cl | 0.78
* CO[C@H]1C[C@@H]2CC[C@@H](C)[C@@](O)(O2)C(=O)C(=O)N2CCCC[C@H]2C(=O)O[C@H]([C@H](C)C[C@@H]2CC[C@@H](O)[C@H](OC)C2)CC(=O)[C@H](C)/C=C(\C)[C@@H](O)[C@@H](OC)C(=O)[C@H](C)C[C@H](C)/C=C/C=C/C=C/1C | 0.81
* CN(C)C/C=C/C(=O)Nc1cccc(C(=O)Nc2ccc(Nc3nccc(-c4cccnc4)n3)cc2)c1 | 0.74
* CCOC(=O)c1ccc(N2C(=O)C(O)=C(C(=O)c3ccc(OC)cc3)C2c2ccc(F)cc2)cc1 (stereo not drawn) | 0.89
* O=C(O)c1ccc(-c2c[nH]c3ncc(-c4ccccc4)cc23)cc1C1CCCC1 | 0.98
* COc1ccccc1Nc1nc(-c2nn(Cc3c(F)cc(OCCCO)cc3F)c3ccccc23)ncc1OC | 0.93
* CCCS(=O)(=O)Nc1ccc(F)c(Nc2ncnc3cnc(-n4cnc(C)c4)nc23)c1F | 0.63
* C[S+](C)[O-] [DIMETHYL SULFOXIDE] | 0.44

* * *

- System: U2OS
- measurement notes: Incucyte cell viability with U2OS; note: unitless GR value; below 1 slowed growth and below 0 cell loss
- Assay type: toxicity, cell-based
- cond: human, 6 h, 10 µM, compound concentration 10 uM, replicate number 2
measured metric: Growth Rate

* C[C@@H](CO)CCC[C@@H](C)[C@H]1CC[C@H]2[C@@H]3CC=C4C[C@@H](O)CC[C@]4(C)[C@H]3CC[C@]12C | 0.82
* COCCNc1nc2ccc(C#CC3(O)CCCCC3)cc2n1-c1ccnc(N)n1 | 0.8
* CNc1nc(NCc2ncccn2)c2c(-c3ccc4ncccc4c3)c[nH]c2n1 | 0.82

* * *

- System: Fibroblast
- measurement notes: Incucyte cell viability with human fibroblast; note: unitless GR value; below 1 slowed growth and below 0 cell loss
- Assay type: toxicity, cell-based
- cond: 6 h, 10 µM, compound concentration 10 uM, replicate number 1
Label key: Met means Growth Rate under -0.02; Not met means Growth Rate of -0.02 or more.

* Cn1cc(-c2ccc(-c3cncc(Cl)c3N3CCC4(CCNC4=O)CC3)cc2)cn1 | Not met
* COc1cc(N)c(Cl)cc1C(=O)NC1CN2CCC1CC2.Cl (configuration not stated) | Met
* O=C(Nc1cccc(C(F)(F)F)c1)c1cccc(-n2cc(-c3ccco3)nn2)c1 | Not met
* CN(C)C(=O)Cn1cc(-c2ccc(-c3nnc4ccccn34)cc2)cn1 | Not met
* Cc1cc(-c2nc(-c3ccc(OC(F)(F)F)cc3)no2)nn1Cc1ccnc(N2CCN(C3CC3)CC2)c1 | Not met
* CCN1CCN(Cc2ccc(Nc3ncc(F)c(-c4cc(F)c5nc(C)n(C(C)C)c5c4)n3)nc2)CC1.CS(=O)(=O)O | Not met
* CCN1CCN(Cc2ccc(NC(=O)c3ccc(C)c(Oc4ccnc5[nH]ccc45)c3)cc2C(F)(F)F)CC1.Cl.Cl.Cl.O | Met
* COC(=O)c1cc2c(cn1)[nH]c1ccccc12 | Not met
* CCCOc1cnc(CN/C=C2\C(=O)NC(=O)c3ccc(I)cc32)cc1O | Met
* CC(C)n1cc(-c2ccc(N3CCN(C)CC3)c(NC(=O)c3ccc(-c4ccncc4)o3)c2)cn1 | Met
* Cn1nccc1-c1ccc(Sc2cccc(C3(C(N)=O)CCOCC3)c2)cc1 | Met
* Cl.O=S(=O)(c1cccc2c(I)cccc12)N1CCCNCC1 | Met
* Cl.Cl.NC1(c2ccc(-c3nc4ccn5c(=O)[nH]nc5c4cc3-c3ccccc3)cc2)CCC1 | Met
* O[C@]1(C(F)(F)F)CCCC[C@H]1Nc1ccc(F)cc1 | Not met
* CCO[C@H](COc1ccc(C(F)(F)F)cc1)CSc1ccc(OCC(=O)[O-])c(C)c1.[Na+] | Not met
* Cl.NC(=O)c1ccccc1Nc1nc(-c2ccc(N3CCOCC3)cc2)cc2ncccc12 | Met
* O=c1c(Br)ccc2n1C[C@@H]1CNC[C@H]2C1 | Met
* Nc1n[nH]c2nc(-c3ccc(NS(=O)(=O)c4cccc(Cl)c4Cl)cc3)cnc12 | Met
* Nc1ccc(S(=O)(=O)Nc2ccnn2-c2ccccc2)cc1 | Met
* CC1CNCCc2c1nc1ccnn1c2N1CC(C(=O)N2CCC(C)(C)C2)C1 (configuration not stated) | Not met
* CN1CCN(c2ccc(/C=C(\C#N)c3ccccc3Br)cc2)CC1.Cl.Cl | Not met
* Cn1c(Nc2c(Cl)cccc2Cl)nc2ccc3nc[nH]c(=O)c3c21 | Not met
* Cc1ccccc1Oc1cc(-n2c(=O)cc(C(F)(F)F)[nH]c2=O)c2ccccc2c1Cl | Not met
* O=C(N[C@H]1CN2CCC1CC2)c1ccc(Cl)cc1 | Met
* O=C1NC(NC23CC4CC(CC(C4)C2)C3)=N/C1=C\c1ccc2ncsc2c1 | Met
* CCOC(=O)C1=C[C@]2(CC)CCCN3CCc4c(n1c1ccccc41)[C@@H]32 | Not met
* CC(C)c1nc2c(c3c1[C@@H](c1ccc(C(F)(F)F)cc1)OC31CCOCC1)[C@@H](O)CC(C)(C)C2.Cl | Met
* OC(c1ccc(-c2ccc(CN3CCN(Cc4ccncc4)CC3)cc2)c(F)c1)(C(F)(F)F)C(F)(F)F | Met
* Cc1cc(-c2cnc(N)c3c(-c4ccc5scnc5c4)csc23)n(C)n1 | Not met
* CN1C2CCCC1CC(Nc1ccccc1Br)C2 (configuration not stated) | Met
* CN(C)CCCn1cc(C2=C(c3c[nH]c4ccccc34)C(=O)NC2=O)c2ccccc21 | Met
* O=C1CCCc2[nH]c(-c3ccnc(NCC4CC4)c3)c(Nc3ccccc3)c21 | Met
* CC(C)(C#Cc1ccc(NC(=O)COc2ccccc2C(=O)c2ccccc2)c(Cl)c1)C(=O)O | Not met
* O=C(O)CCCCN(CCc1cc(F)ccc1OCc1ccc(-c2ccc(C(F)(F)F)cc2)cc1)Cc1ccc(C(=O)O)cc1 | Not met
* Cc1c(C(=O)Nc2cccc(C(F)(F)F)c2)cc(-c2ccccc2)n1CCCN1CCOCC1.Cl | Met
* CN(C)C(=O)Cn1cc(-c2nc([C@@](C)(c3ccc(-c4cnc(N)nc4)cc3)C3CC3)no2)cn1 | Not met
